- procedure details: PubChem AID 504770
- conditions used: E. coli YBA685 rctB-dependent plasmid, OD600 growth, 3 h; hits give low values
In all, about 130,000 compounds went through this assay and about 350 (0.27%) were called active. Shown is part of a subset that was picked to be rich in actives.
# z-score binned as L: < -0.4; M: ≥ -0.4 and < 0.5; H: ≥ 0.5

compound: COc1cc(CNc2ccc3[nH]c(=O)[nH]c3c2)ccc1OCC(N)=O
label value: H
--
compound: CCOC(=O)N1CCN(c2nc(-c3ccccc3)no2)CC1
label value: M
--
compound: Cc1ccc2oc(-c3ccccc3C)nc2c1
label value: H

Task: // return the class label for CCc1ccc(C(=O)COC(=O)c2cccc(-n3cccc3)c2)s1
Output: H

Task: // return the class label for N#CC1=CN(Cc2ccccc2)C=C(/C=N/Nc2ccc(F)cc2)C1
Output: L

Task: // return the class label for O=c1c(/C=N/O)coc2ccc(Cl)cc12
Output: L

Task: // return the class label for O=C(c1[nH]nc2c1CCc1ccccc1-2)N1CCCC1
Output: M

Task: // return the class label for O=c1cc(O)nc2ccccn12
Output: H

Task: // return the class label for C=CCNc1nc(SC)nc2ccccc12
Output: H

Task: // return the class label for O=C(COC(=O)/C=C/c1cn(-c2ccccc2)nc1-c1ccccc1)NC1CC1
Output: L

Task: // return the class label for Cc1cc(C(=O)Oc2ccc(C(=O)c3ccc(F)cc3)cc2)on1
Output: M

---

- procedure details: PubChem AID 504770
- conditions used: E. coli YBA685 rctB-dependent plasmid, OD600 growth, 3 h; hits give low values
Hit rate of the full screen: of about 130,000 compounds, about 350 (0.27%) were called active. This is one part of a sample in which actives are shown more often than they occur.
recorded metric: z-score

compound: COC(=O)CC1=C(C(=O)OC)C2(C(=O)N1)C(C#N)=C(N)Oc1ccccc12 (stereo not given)
z-score: 0.45 (inactive)
--
compound: O=C1NC(=Nc2ccc(O)cc2)S/C1=C\c1ccc(C(=O)O)cc1
z-score: -0.6 (inactive)
--
compound: CCN1CCN(c2ccc(NC(=O)[C@H](Cc3ccccc3)N3Cc4ccccc4C3=O)cc2)CC1
z-score: 1.2 (inactive)
--
compound: O=C(CSc1ccccn1)Nc1cc(C(F)(F)F)cc(C(F)(F)F)c1
z-score: -0.4 (inactive)

Task: Any idea what its z-score is? The compound is COC(=O)c1sc(=S)n(-c2ccc(C)cc2)c1N
Output: 0.95 (inactive)

---

- procedure details: PubChem AID 504770
- conditions used: E. coli YBA685 rctB-dependent plasmid, OD600 growth, 3 h; hits give low values
Out of some 130,000 compounds screened, about 350 (0.27%) were called active. This excerpt belongs to a sample that is enriched for actives.
recorded metric: z-score
One number for each entry.

Some entries whose results are on file:
molecule: C=CCN(C(=O)C1CCCC1)c1nc2c(s1)CCCC2
z-score: -1.05
--
molecule: Cc1nnsc1C(=O)NC(=O)c1ccccc1O
z-score: 0.45
--
molecule: Cc1nc(N)nc(CSc2ccc(Cl)cc2)n1
z-score: 1.4

Task: Any idea what its z-score is? The molecule is CCOC(=O)CN1C=NS(=O)(=O)c2ccccc21
Output: 0.4

---

- procedure details: PubChem AID 504770
- conditions used: E. coli YBA685 rctB-dependent plasmid, OD600 growth, 3 h; hits give low values
Out of some 130,000 compounds screened, about 350 (0.27%) were called active. Only a selection was taken, and actives are over-represented in it overall.
# z-score binned as low: < -0.4; intermediate: ≥ -0.4 and < 0.2; high: ≥ 0.2

Worked set:
compound: COC(=O)C(C)N(C#N)c1nc(N(C)C)nc(N(C)C)n1 (stereo not drawn)
label value: intermediate
//
compound: O=C1CCc2cc(S(=O)(=O)NCC3CCCO3)cc3c2N1CC3 (stereo not drawn)
label value: high
//
compound: Cc1c(CCN)sc2nc(-c3ccc(Cl)cc3)nn12
label value: high

Task: // return the class label for COc1ccc(C(=O)Nc2ccc(-n3nncc3-c3ccccc3)cc2)cc1
Output: low

Task: // return the class label for COc1ccccc1-c1nnc(C2CCN(S(=O)(=O)c3ccc(C)cc3)CC2)o1
Output: high

Task: // return the class label for O=C(NCCN1CCOCC1)C1CCN(C(=O)c2cc3sccc3n2Cc2ccc(F)cc2)CC1
Output: low

Task: // return the class label for O=C1CCCC2=C1C(c1ccccn1)C1=C(CCCC1=O)O2
Output: low

Task: // return the class label for CC1CCCC(C)N1C(=O)COC(=O)c1ccccc1I (stereo not drawn)
Output: high

Task: // return the class label for CC1CC(C)CN(c2nc3ccccc3c(=O)n2-c2ccc(Cl)cc2)C1 (stereo not drawn)
Output: low

Task: // return the class label for O=C1CC2(CCN(C(=O)Cc3ccccc3)CC2)Oc2ccccc21
Output: high

Task: // return the class label for CCOC(=O)c1ccc(-c2cc(=O)c3ccccc3o2)cc1
Output: intermediate

---

- procedure details: PubChem AID 504770
- conditions used: E. coli YBA685 rctB-dependent plasmid, OD600 growth, 3 h
Hit rate of the full screen: of about 130,000 compounds, about 350 (0.27%) were called active. Cut-off read from the data, not from the text of the source: active = z-score below about -2 (passing the limit was not always enough); inactive = the rest. This is one part of a sample in which actives are shown more often than they occur.
Return exactly one item of 1.0 (active), 0.0 (inactive)

Worked set:
compound: O=C(CCc1ccccc1)Nc1nnc(SCC(=O)N2CCCCCC2)s1
label value: 0.0
--
compound: COc1ccc2c(CC(=O)OCc3cc(Cl)c4c(c3)OCCCO4)coc2c1
label value: 0.0
--
compound: Cc1ccccc1C(=O)Nc1ccccc1N1CCN(C)CC1
label value: 0.0
--
compound: NS(=O)(=O)c1cc(OCC(F)(F)F)ccc1OCC(F)(F)F
label value: 0.0
--
compound: C/C=C/C(=O)Nc1ccc(N2CCN(c3ccc(C(F)(F)F)cn3)CC2)nc1
label value: 0.0

Task: // return assay outcome for CC(OC(=O)C1CCN(C(=O)c2ccc(Cl)cc2)CC1)C(=O)NC1CC1 (stereo not drawn)
Output: 0.0

Task: // return assay outcome for Clc1ccc2c(Sc3nncn3-c3ccccc3)ccnc2c1
Output: 0.0

Task: // return assay outcome for CC(=O)NCc1ccc(C(=O)COC(=O)c2cc(-c3ccccc3)nn2-c2ccccc2)o1
Output: 0.0

---

- procedure details: PubChem AID 504770
- conditions used: E. coli YBA685 rctB-dependent plasmid, OD600 growth, 3 h; hits give low values
Out of some 130,000 compounds screened, about 350 (0.27%) were called active. The sample as a whole holds a higher share of actives than the screen did.
recorded metric: z-score

Some entries whose results are on file:
compound: Cc1ccc(C(=O)C(C)Sc2nnc3ccccn23)cc1 (stereo not given)
z-score: -0.05 (inactive)
//
compound: CC(=O)Oc1ccc2c(=O)c(-c3ccccc3)coc2c1C
z-score: 0.9 (inactive)
//
compound: CN1CCCc2cc(-c3ccnc4ccccc34)ccc21
z-score: 0.35 (inactive)
//
compound: Cc1c(OCC#N)ccc2c3c(c(=O)oc12)CCC3
z-score: -0.7 (inactive)
//
compound: O=C(NC1CCCC1)c1cc(-c2ccc(Br)cc2)on1
z-score: -2.5 (active)

// input: 8 compounds below; output: z-score for each
1. CCOC(=O)c1c(NC(=O)c2cc3ccccc3o2)sc2c1CC(C)(C)OC2
2. COC(=O)c1cc2occc2n1Cc1ccc(C)cc1
3. CCC1(C)NC(=O)N(NC(=O)c2ccc(S(=O)(=O)N3CCCC3)cc2)C1=O (stereo not given)
4. CCCc1nc2c3ccccc3ncn2n1
5. Cc1nc(S(=O)(=O)NCc2ccc(-c3cccs3)cc2)cn1C
6. N#CC1=C(N)C(C#N)(C#N)C(c2cccs2)C=C1C1CC1 (stereo not given)
7. COc1ccc(C2C(C#N)(C#N)C2(C#N)C#N)cc1
8. Cc1nc2c3ccccc3n3c(CCCC(=O)NCc4ccccn4)nnc3n2n1

Output:
1: 1.4 (inactive); 2: 0.3 (inactive); 3: 0.95 (inactive); 4: -5.5 (active); 5: -0.2 (inactive); 6: -0.95 (inactive); 7: 0.05 (inactive); 8: 1.15 (inactive)

// input: 7 compounds below; output: z-score for each
1. COc1cccc(/C=N/NC(=O)Cc2ccccc2)c1
2. C=CCNc1nc(OC)nc(OC)n1
3. O=C(CCS(=O)(=O)c1cc(Br)cc2c1N(C(=O)C1CC1)CC2)NCc1ccc(F)cc1
4. COc1ccc(/C=N/NC(=O)c2ccccc2)cc1OC
5. CCc1ccc(C(=O)CCC(=O)O)s1
6. Cc1onc(-c2c(Cl)cccc2Cl)c1/C=N/O
7. O=C(CCn1c(=O)oc2ccccc21)Sc1ccc(C(F)(F)F)cc1

Output:
1. -0.6 (inactive)
2. 0.15 (inactive)
3. -0.8 (inactive)
4. 0.85 (inactive)
5. -3.1 (active)
6. -0.4 (inactive)
7. 0.8 (inactive)
